log10 of IC50 by entry:
Target: human prostaglandin E2 (subtype EP2) receptor (Homo sapiens, UniProt P43116)
Construct: host or cells: cells in a cell culture plate
Sequence (P43116 whole entry): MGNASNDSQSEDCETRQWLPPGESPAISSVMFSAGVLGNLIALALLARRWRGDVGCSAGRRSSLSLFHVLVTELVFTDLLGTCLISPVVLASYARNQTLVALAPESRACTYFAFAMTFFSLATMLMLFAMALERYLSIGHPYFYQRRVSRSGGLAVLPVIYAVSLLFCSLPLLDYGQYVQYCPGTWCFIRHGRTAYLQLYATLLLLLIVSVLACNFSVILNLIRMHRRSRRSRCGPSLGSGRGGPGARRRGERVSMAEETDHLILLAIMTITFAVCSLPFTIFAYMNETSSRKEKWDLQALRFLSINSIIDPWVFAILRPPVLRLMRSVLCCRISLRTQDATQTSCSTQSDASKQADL
Experiment: cAMP antagonism assay (HTRF cAMP detection, in the presence of PGE2)
Format: cell-based
Conditions: cAMP antagonism assay, EP2 receptor, in presence of PGE2; read-out: Antagonism [IC50
Annotation: log10 of IC50, nM basis.

Below, 2 molecules whose answers are already recorded.
Smiles notation | log10 of IC50
O=C(NC1CCN(c2ncnc3cc(Cl)ccc23)CC1)c1cccc(Cl)c1Cl | 2.78
N#Cc1ccc2c(N3CCC(NC(=O)c4cccc(Cl)c4Cl)CC3)ccnc2c1 | 2.95

Here is another molecule to look at.
// log10 of IC50 value for O=C(NC1CCN(c2ccnc3cc(Cl)ccc23)CC1)c1ccc([N+](=O)[O-])o1 : 3.30

----------
Molecular target: human prostaglandin E2 (subtype EP2) receptor (Homo sapiens)
Construct: host or cells: cells in a cell culture plate
Experiment: cAMP agonism assay (HTRF cAMP detection)
Assay type: cell-based
Details: cAMP agonism assay, EP2 receptor; read-out: Agonism [ED50
Metric: EC50

Examples with their reported EC50 follow.
Smiles notation | Target system | EC50
O=C(NC1CCN(c2ccnc3cc(Cl)ccc23)CC1)c1ccc(F)c(F)c1F | human prostaglandin E2 (subtype EP2) receptor (Homo sapiens) | > 19 µM
O=C(NC1CCN(c2ccnc3cc(Cl)ccc23)CC1)c1ccc([N+](=O)[O-])o1 | human prostaglandin E2 (subtype EP2) receptor (Homo sapiens) | > 19 µM
O=C(NC1CCN(c2ccnc3cc(Cl)ccc23)CC1)c1ccccc1Cl | human prostaglandin E2 (subtype EP2) receptor (Homo sapiens) | > 19 µM
O=C(NC1CCN(c2ccnc3cc(Cl)ccc23)CC1)c1ccccc1Br | human prostaglandin E2 (subtype EP2) receptor (Homo sapiens) | > 19 µM
O=C(NC1CCN(c2ccnc3c(Cl)cccc23)CC1)c1cccc(Cl)c1Cl | human prostaglandin E2 (subtype EP2) receptor (Homo sapiens) | > 19 µM

Per the records, this compound ( N#Cc1ccc2c(N3CCC(NC(=O)c4cccc(Cl)c4Cl)CC3)ccnc2c1 ) has EC50 equal to > 19 µM

Form: compound = O=C(NC1CCN(c2ccnc3cc(C(F)(F)F)ccc23)CC1)c1cccc(Cl)c1Cl ; EC50 = > 19 µM

The recorded EC50 for O=C(NC1CCN(c2ccnc3cc(Br)ccc23)CC1)c1cccc(Cl)c1Cl is > 19 µM

Notebook: O=C(NC1CCN(c2ccnc3cc(Cl)ccc23)CC1)c1cccc(Cl)c1Cl , EC50 read as > 19 µM

The recorded EC50 for O=C(NC1CCN(c2ncnc3cc(Cl)ccc23)CC1)c1cccc(Cl)c1Cl is > 19 µM

----------
Molecular target: human prostaglandin E2 (subtype EP2) receptor (Homo sapiens)
Construct: host or cells: cells in a cell culture plate
Assay: cAMP antagonism assay (HTRF cAMP detection, in the presence of PGE2)
Format: cell-based
Settings: antagonism test; read-out: IC50 in the antagonism test
Metric: IC50 (nM)
Your answer should be a plain number; it is taken to be in nM.

Looking up O=C(NC1CCN(c2ccnc3cc(Cl)ccc23)CC1)c1cccc(Cl)c1Cl , I found its IC50 recorded as 200

----------
Biological target: human prostaglandin E2 (subtype EP2) receptor (Homo sapiens)
Construct: host or cells: cells in a cell culture plate
Assay: cAMP agonism assay (HTRF cAMP detection)
Format: cell-based
Details: cellular agonism test; read-out: EC50 in the cellular agonism test
pEC50: −log10 of the molar value.
Metric: pEC50

Short answer for O=C(NC1CCN(c2ccnc3cc(Cl)ccc23)CC1)c1cccc(Cl)c1Cl : pEC50 was < 4.72

----------
Below: a set of entries, each annotated with reported pIC50.
Molecular target: human prostaglandin E2 (subtype EP2) receptor (Homo sapiens, UniProt P43116)
Construct: host or cells: cells in a cell culture plate
Test: cAMP antagonism assay (HTRF cAMP detection, in the presence of PGE2)
Assay type: cell-based
Conditions: cAMP antagonism assay, EP2 receptor, in presence of PGE2; read-out: Antagonism [IC50
A value of pIC50 is the negative decimal logarithm of a concentration given in moles per litre.

# count of solved cases: 3
Compound | pIC50
O=C(NC1CCN(c2ccnc3cc(Cl)ccc23)CC1)c1ccc(F)c(F)c1F [Example 20] | 5.80
O=C(NC1CCN(c2ccnc3cc(Cl)ccc23)CC1)c1ccccc1Cl [Example 4] | 6.00
O=C(NC1CCN(c2ccnc3c(Cl)cccc23)CC1)c1cccc(Cl)c1Cl [Example 35] | 7.00

# pIC50 (compound: O=C(NC1CCN(c2ccnc3cc(Cl)ccc23)CC1)c1ccccc1Br [Example 1] ) is 6.22

The reported value for O=C(NC1CCN(c2ccnc3cc(Br)ccc23)CC1)c1cccc(Cl)c1Cl [Example 36] in terms of pIC50 is 7.00

// recorded pIC50 for O=C(NC1CCN(c2ccnc3cc(C(F)(F)F)ccc23)CC1)c1cccc(Cl)c1Cl [Example 34] : 6.70

Input O=C(NC1CCN(c2ccnc3cc(Cl)ccc23)CC1)c1ccccc1I [Example 10] . Output pIC50: 5.89
